- Test system: Mus musculus
- protocol.description: Antiinflammatory activity against TPA-induced ear edema in Swiss mouse assessed as inhibition of increase in ear weight at 0.5 mg/ear administered topically measured after 4 hrs relative to control
- Type: functional
reported.property: inhibition (INH) (%)
Write down the numeric answer in % and omit the unit.

CCCCCn1c2ccc([N+](=O)[O-])cc2c(=O)n1Cc1ccccc1 = 92
Cn1c(=O)c2cc([N+](=O)[O-])ccc2n1Cc1ccccc1 = 97
O=c1c2cc([N+](=O)[O-])ccc2n(Cc2ccccc2)n1Cc1ccccc1 = 80
Cn1c2ccc([N+](=O)[O-])cc2c(=O)n1Cc1ccccc1 = 104
O=C1C2=Cc3ccccc3CCN2c2ccccc21 = 73

Qu. What inhibition (INH) appears in the records for this molecule with Mus musculus? COc1ccc2c(c1)c(CC(=O)O)c(C)n2C(=O)c1ccc(Cl)cc1 [INDOMETHACIN]
Ans. 97

Qu. Now give it for O=[N+]([O-])c1ccc2[nH]nc(OCc3ccccc3Cl)c2c1 too.
Ans. 91

Qu. Now give it for O=c1[nH]n(Cc2ccccc2F)c2ccccc12 too.
Ans. 32

---

- Species on record: Danio rerio
- protocol.description: Toxicity in transgenic zebrafish larvae harboring Fli-1 gene assessed as maximum tolerated dosage after 24 hrs
- Assay type: organism-based
- run.conditions: in vivo
reported.property: MTD (µM)
Write down the numeric answer in µM and omit the unit.

CCCCCn1c2ccc([N+](=O)[O-])cc2c(=O)n1Cc1ccccc1 = 10
COc1nn(Cc2ccccc2F)c2ccc([N+](=O)[O-])cc12 = 30
O=c1c2cc([N+](=O)[O-])ccc2n2n1Cc1ccccc1C2 = 10

Qu. Can you look up the measured MTD of O=[N+]([O-])c1ccc2[nH]nc(OCc3ccccc3Cl)c2c1 for me?
Ans. 10

Qu. Now give it for Cn1c(=O)c2cc([N+](=O)[O-])ccc2n1Cc1ccccc1 too.
Ans. 30

Qu. Now give it for O=c1[nH]n(Cc2ccccc2OCc2ccccc2)c2ccc([N+](=O)[O-])cc12 too.
Ans. 10

---

- Species: Danio rerio
- protocol.description: Antiinflammatory activity in transgenic zebrafish larvae harboring Fli-1 gene assessed as LPS-stimulated leukocyte migration to injury zone of tail transected larvae at 30 uM after 20 to 22 hrs by microscopy
- Assay type: functional
Doc: threshold 0.6 (exclusive). Items with Ratio beneath it return condition met; others return condition not met.

Worked cases, answers included:
CCCn1c2ccc([N+](=O)[O-])cc2c(=O)n1Cc1ccccc1 = condition met
O=c1c2cccnc2n2n1Cc1ccccc1C2 = condition met
O=c1[nH]n(Cc2ccccn2)c2ccc([N+](=O)[O-])cc12 = condition not met
O=[N+]([O-])c1ccc2c(c1)CC([O-])=N[N+]21CCCCC1 = condition not met
O=c1c2cc([N+](=O)[O-])ccc2[nH]n1Cc1ccccn1 = condition not met
O=c1[nH]n(Cc2ccccc2Cl)c2ccc([N+](=O)[O-])cc12 = condition met

Qu. Is Ratio strictly under 0.6 for the entry Cn1c(=O)c2cc([N+](=O)[O-])ccc2n1Cc1ccccc1 ?
Ans. condition met

Qu. Now give it for CN(C)CCCOc1nn(Cc2ccccc2F)c2ccc([N+](=O)[O-])cc12 too.
Ans. condition not met

Qu. Now give it for O=c1[nH]n(Cc2ccccc2F)c2ccccc12 too.
Ans. condition met

Qu. Now give it for O=C(Cc1cc([N+](=O)[O-])ccc1F)NN1Cc2ccccc2C1 too.
Ans. condition not met

---

The reader will find reported Ratio values listed item by item below.
- Species on record: Danio rerio
- protocol.description: Antiinflammatory activity in transgenic zebrafish larvae harboring Fli-1 gene assessed as LPS-stimulated leukocyte migration to injury zone of tail transected larvae at 3 uM after 20 to 22 hrs by microscopy
- Assay type: functional
Just the number, please, no unit after it.

Worked cases, answers included:
O=C(NCc1cc([N+](=O)[O-])ccc1N1CCc2ccccc2C1)NCc1cc([N+](=O)[O-])ccc1N1CCc2ccccc2C1 = 0.82
O=c1[nH]n(Cc2ccccc2F)c2ccccc12 = 0.46
O=c1[nH]n(Cc2ccccc2-c2ccccc2Cn2[nH]c(=O)c3cc([N+](=O)[O-])ccc32)c2ccc([N+](=O)[O-])cc12 = 0.92
O=C1C2=Cc3ccccc3CCN2c2ccccc21 = 0.24
O=c1[nH]n(Cc2ccccc2F)c2ccc([N+](=O)[O-])cc12 = 0.84

Kindly consider the entry below.
Qu. Can you look up the measured Ratio of O=c1[nH]n(Cc2cccc(Cn3[nH]c(=O)c4cc([N+](=O)[O-])ccc43)c2)c2ccc([N+](=O)[O-])cc12 for me?
Ans. 0.8

---

- Organism: Danio rerio
- protocol.description: Toxicity in transgenic zebrafish larvae harboring Fli-1 gene assessed as maximum tolerated dosage after 24 hrs
- Assay type: organism-based
- run.conditions: in vivo
reported.property: MTD (µM)
Write down the numeric answer in µM and omit the unit.

Worked cases, answers included:
O=[N+]([O-])c1ccc2c(c1)c(OCc1ccccc1)nn2Cc1ccccc1 = 10
O=c1[nH]n(Cc2ccccc2CCl)c2ccc([N+](=O)[O-])cc12 = 10

Kindly consider the entry below.
Qu. Can you look up the measured MTD of CCCn1c2ccc([N+](=O)[O-])cc2c(=O)n1Cc1ccccc1 for me?
Ans. 30

---

- Species on record: Danio rerio
- protocol.description: Toxicity in transgenic zebrafish larvae harboring Fli-1 gene assessed as maximum tolerated dosage after 24 hrs
- Format: organism-based
- run.conditions: in vivo
reported.property: MTD

O=c1c2cc([N+](=O)[O-])ccc2[nH]n1Cc1ccccc1 = > 100 µM
COc1ccc2c(c1)c(CC(=O)O)c(C)n2C(=O)c1ccc(Cl)cc1 [INDOMETHACIN] = > 100 µM

Kindly consider the entry below.
Qu. Can you look up the measured MTD of O=C(NN1Cc2ccccc2C1)c1cc([N+](=O)[O-])ccc1Cl for me?
Ans. > 100 µM
